Molecular target: human Yes1 enzyme (Homo sapiens, UniProt P07947)
Construct: made in house
Sequence (P07947 whole entry): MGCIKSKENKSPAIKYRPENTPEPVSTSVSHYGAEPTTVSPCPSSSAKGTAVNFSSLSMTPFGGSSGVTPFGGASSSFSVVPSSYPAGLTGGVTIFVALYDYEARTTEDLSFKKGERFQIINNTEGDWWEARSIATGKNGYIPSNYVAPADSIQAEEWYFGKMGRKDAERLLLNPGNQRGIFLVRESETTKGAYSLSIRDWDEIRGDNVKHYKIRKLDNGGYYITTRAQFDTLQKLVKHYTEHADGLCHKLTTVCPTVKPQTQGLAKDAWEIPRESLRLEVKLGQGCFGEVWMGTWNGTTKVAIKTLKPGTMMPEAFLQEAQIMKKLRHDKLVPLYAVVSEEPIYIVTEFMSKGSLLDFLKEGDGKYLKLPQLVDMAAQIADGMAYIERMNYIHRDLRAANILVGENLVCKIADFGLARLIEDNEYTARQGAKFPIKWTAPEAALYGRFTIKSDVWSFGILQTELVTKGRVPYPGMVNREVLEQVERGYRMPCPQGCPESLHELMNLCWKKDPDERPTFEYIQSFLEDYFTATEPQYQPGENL
Assay: Yes1 enzyme inhibitory activity (time-resolved fluorometry, biotinylated peptide phosphorylation)
Assay type: biochemical
Settings: biotinylated peptide phosphorylation, read-out: YES_IC50
Reported log10(IC50) is given for each of the following compounds.
Property Measured: log10(IC50) (log10 of the value in nM)

>>> print(df.to_string())
                  compound_structure_string  measured
0  COc1ccnc(S(=O)(=O)Nc2cc3[nH]c(C(=O)c4cnn(-c5cnc(Oc6ccccc6F)cc5C)c4N)cc3cc2C)c1      0.80
1  Cc1cc(Oc2ccccc2F)ncc1-n1ncc(C(=O)c2cc3cc(C4CC4)c(NS(=O)(=O)CCCF)cc3[nH]2)c1N      0.49
2  Cc1cc(Oc2c(F)cccc2F)ncc1-n1ncc(C(=O)c2cc3cc(F)c(NS(=O)(=O)c4c(F)cc(F)cc4F)cc3[nH]2)c1N      1.28
3  Cc1cc(Oc2c(F)cccc2F)ncc1-n1ncc(C(=O)c2cc3cc(OCC(F)F)c(N4CCCC4=O)cc3[nH]2)c1N      0.57
4  Cc1cc(Oc2c(F)cccc2F)ncc1-n1ncc(C(=O)c2cc3cc(F)c(N4C(=O)N[C@@H](C(C)C)C4=O)cc3[nH]2)c1N      0.69
5  Cc1cc2cc(C(=O)c3cnn(-c4cnc(Oc5c(F)cccc5F)cc4C)c3N)[nH]c2cc1NS(=O)(=O)c1cncc(Cl)c1      1.08
6  Cc1cc2cc(C(=O)c3cnn(-c4ccc(Oc5ccccc5F)cc4C)c3N)[nH]c2cc1NS(=O)(=O)CC(=O)N1CCOCC1     -0.32
7  CC(C)N1CCC(c2cc3cc(C(=O)c4cnn(-c5ccc(Oc6ccccc6F)cc5F)c4N)[nH]c3cc2F)CC1     -0.09
8  Cc1cc2cc(C(=O)c3cnn(-c4cnc(Oc5c(F)cccc5F)cc4C)c3N)[nH]c2cc1NS(=O)(=O)c1c(F)cc(F)cc1F      1.28
9  Cc1cc(Oc2ccccc2F)ncc1-n1ncc(C(=O)c2cc3cc(F)c(NS(=O)(=O)NC4CCOCC4)cc3[nH]2)c1N      0.00

###

Target: human Yes1 enzyme (Homo sapiens)
Construct: made in house
Assay: Yes1 enzyme inhibitory activity (time-resolved fluorometry, biotinylated peptide phosphorylation)
Assay type: biochemical
Conditions: biotinylated peptide phosphorylation, read-out: YES_IC50
pIC50: −log10 of the molar value.
Reported pIC50 is given for each of the following compounds.
Property Measured: pIC50

In [3]: df
Out[3]:
                                    compound  measured
 0  Cc1cc(Oc2ccccc2F)ncc1-n1ncc(C(=O)c2cc3cc(OC(F)F)c(C4CCN(S(=O)(=O)C5CC5)CC4)cc3[nH]2)c1N [Example 4-17-010]      8.70
 1  Cc1cc(Oc2ccc(F)cc2)ncc1-n1ncc(C(=O)c2cc3cc(F)c(NS(C)(=O)=O)cc3[nH]2)c1N [Example 4-2-039]      8.39
 2  Cc1cc(Oc2ccccc2F)ncc1-n1ncc(C(=O)c2cc3cc(N4CCOCC4)c(NS(=O)(=O)CCCF)cc3[nH]2)c1N [Example 4-24-016]      9.06
 3  Cc1cc2cc(C(=O)c3cnn(-c4c(C)cc(Oc5ccccc5F)cc4F)c3N)[nH]c2cc1NS(=O)(=O)CC(=O)N1CCOCC1 [Example 4-10-009]      8.57
 4  Cc1cc(Oc2cc(F)ccc2F)cc(F)c1-n1ncc(C(=O)c2cc3cc(Cl)c(NS(C)(=O)=O)cc3[nH]2)c1N [Example 4-2-081]      7.85
 5  Cc1cc2[nH]c(C(=O)c3cnn(-c4ccc(Oc5ccccc5F)cc4C)c3N)cc2cc1NS(C)(=O)=O [Example 4-2-049]      9.54
 6  Cc1cc(Oc2c(F)cccc2F)ncc1-n1ncc(C(=O)c2cc3cc(F)c(N4CC5(CCOCC5)NS4(=O)=O)cc3[nH]2)c1N [Example 5-1-400]      8.68
 7  Cc1cc(Oc2ccccc2F)ncc1-n1ncc(C(=O)c2cc3cc(NS(C)(=O)=O)c(OCCN4CCOCC4)cc3[nH]2)c1N [Example 4-2-129]      9.23
 8  Cc1cc(Oc2c(F)cccc2F)ncc1-n1ncc(C(=O)c2cc3cc(OCC(F)F)c(NS(=O)(=O)c4cccc(Cl)n4)cc3[nH]2)c1N [Example 5-1-572]      8.46
 9  Cc1cc(Oc2ccccc2F)ccc1-n1ncc(C(=O)c2cc3cc(F)c(NS(=O)(=O)c4cccc(C#N)c4)cc3[nH]2)c1N [Example 5-1-490]      8.43
10  Cc1cc(Oc2ccccc2F)ncc1-n1ncc(C(=O)c2cc3cc(OCC(F)F)c(N4CCOCC4)cc3[nH]2)c1N [Example 4-25-020]      8.92
11  COc1cc2cc(C(=O)c3cnn(-c4c(C)cc(Oc5ccccc5F)cc4F)c3N)[nH]c2cc1NS(=O)(=O)CC(=O)N1CCOCC1 [Example 4-10-013]      8.92
12  Cc1cc(Oc2c(F)cccc2F)ncc1-n1ncc(C(=O)c2cc3cc(OC(F)F)c(C4CCN(S(C)(=O)=O)CC4)cc3[nH]2)c1N [Example 4-17-012]      7.80
